- assayed system: Beta-lactamase (Pseudomonas aeruginosa (strain ATCC 15692 / PAO1 / 1C / PRS 101 / LMG12228)) (UniProt P24735)
- Sequence (P24735 27-397 limits assumed): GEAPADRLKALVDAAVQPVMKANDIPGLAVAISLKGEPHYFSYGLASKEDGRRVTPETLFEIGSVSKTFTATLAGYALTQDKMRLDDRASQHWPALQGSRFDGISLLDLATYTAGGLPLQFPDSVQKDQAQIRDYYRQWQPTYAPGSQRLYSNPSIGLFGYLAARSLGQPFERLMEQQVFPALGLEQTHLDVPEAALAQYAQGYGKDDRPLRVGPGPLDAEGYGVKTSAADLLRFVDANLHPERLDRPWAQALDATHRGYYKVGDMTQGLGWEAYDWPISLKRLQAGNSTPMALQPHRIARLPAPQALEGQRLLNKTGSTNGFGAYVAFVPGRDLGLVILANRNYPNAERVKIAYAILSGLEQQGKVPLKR
- test method notes: Inhibition of Pseudomonas aeruginosa beta-lactamase AmpC at 2 uM
Everything with inhibition lower than 10% is f; everything else, including exactly 10%, is t.

Task: Can CC(C(=O)c1ccccc1)C(=O)C(F)(F)F (stereo unspecified) be said to have inhibition at or above 10%?
Output: t

Task: Can `O=C(CC(=O)C(F)(F)F)c1ccccc1` be said to have inhibition at or above 10%?
Output: t

Task: Can O=C(O)C1CCCN1S(=O)(=O)c1ccccc1 (stereo unspecified) be said to have inhibition at or above 10%?
Output: t

Task: Can `O=C(CC(=O)C(F)(F)F)c1cccnc1` be said to have inhibition at or above 10%?
Output: t

Task: Can `O=C(O)CNS(=O)(=O)c1ccc(CCCCC2CCNCC2)cc1` be said to have inhibition at or above 10%?
Output: t

Task: Can O=C(O)C1CCN1S(=O)(=O)c1cccnc1 (stereo unspecified) be said to have inhibition at or above 10%?
Output: f

Task: Can `O=C(CC(=O)C(F)(F)F)c1ccco1` be said to have inhibition at or above 10%?
Output: t

Task: Can `N#Cc1cc(Br)cc(S(=O)(=O)NCC(=O)O)c1` be said to have inhibition at or above 10%?
Output: f

Task: Can CC(C(=O)c1cccs1)C(=O)C(F)(F)F (stereo unspecified) be said to have inhibition at or above 10%?
Output: t

Task: Can O=C(O)C1CCN1S(=O)(=O)c1cc(Cl)cc(Cl)c1 (stereo unspecified) be said to have inhibition at or above 10%?
Output: f

Task: Can `CN(CC(=O)O)S(=O)(=O)c1ccc(N)cc1` be said to have inhibition at or above 10%?
Output: f
